system: bloodstream form T. brucei Lister 427; assay: ATP–bioluminescence-based bloodstream form T. brucei cell viability assay; conditions: Trypanosoma brucei, 48 h, read-out: Tb427 EC50
So basically, if EC50 comes in under 10 µM it's T, and if it's 10 µM or more it's F.

1) Cc1cc(Nc2cc(Br)cc(Br)c2)nc(N)n1 [Compound 44]: T
2) Cc1cc(Nc2cc(Cl)cc(Cl)c2)nc(N(C)C)n1 [Compound 25]: F
3) Cc1cc(C)cc(Nc2cc(C)nc(N)n2)c1 [Compound 52]: F

In: Report whether reported EC50 is lower than 10 µM (strictly) for Cc1cc(Nc2cc(Cl)cc(-c3ccsc3)c2)nc(N)n1 [Compound 113]
Out: F
